system: MS2 coat protein; experiment: apparent KD of MS2 coat protein; designed switch direction (-1 OFF switch, 1 ON switch): -1; higher = weaker reporter binding; conditions: Eterna round: R95; input ligand: microRNA oligo, concentration not stated

| Sequence entry | Unit descriptor | apparent KD of MS2 coat protein |
| --- | --- | --- |
| GGAAUACAUGAGGAUCACCCAUGUAAGGAUAUGCUGAUUAAAUUGGAUUAAUUAUGCAGCAGAAGGUACAAAAG [Mat - Mod of my Eli Mod D49] (puzzle: Exclusion 1) | µM | 0.0823 |
| CCGAAUAUGCAGGAUAUCUUAUCGGAAACGAUAAGAGAAGGGUAAACAUGAGGAUCACCCAUGUUCCUUAACGG [Mat - Exclusion 6 - Eli Mod - D80] (puzzle: Exclusion 6) | µM | 0.0189 |
| UUUUAACAUGAGGAUCACCCAUGUGAGGAUAUCGAAAUUUAUAUUAAUAUUUAUAAUACGAGAAGGCACAUUUU [JMF 54] (puzzle: Exclusion 1) | µM | 0.0844 |
| AGCAUGCUAGGAUAUACGAAACAUUAGGGUUCGUCGUAUGAACAUGAGGAUCACCCAUGUAGAAGGAGCGUGCA [Mat - Exclusion 2 - Mod of Hyphema - D95] (puzzle: Exclusion 2) | µM | 0.0179 |
